Target: T1, recombinant human IL-36R extracellular domain expressed with a C-terminal myc-myc-hexahistidine tag (human, UniProt Q9HB29 20-337)
T1 construct: also called hIL-36R-MMH; hIL-36R.mmH
T1 sequence (Q9HB29 other isoform, or with tags, fused parts or gaps limits assumed): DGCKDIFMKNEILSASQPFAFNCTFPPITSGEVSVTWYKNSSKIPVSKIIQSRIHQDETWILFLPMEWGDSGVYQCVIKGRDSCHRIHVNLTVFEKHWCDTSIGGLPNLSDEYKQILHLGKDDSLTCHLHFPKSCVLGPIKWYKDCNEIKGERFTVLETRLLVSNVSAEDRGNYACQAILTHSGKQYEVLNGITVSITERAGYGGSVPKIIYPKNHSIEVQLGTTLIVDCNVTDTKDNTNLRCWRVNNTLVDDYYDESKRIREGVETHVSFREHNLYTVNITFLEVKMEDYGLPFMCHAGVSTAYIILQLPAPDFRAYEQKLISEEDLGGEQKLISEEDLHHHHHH
Assay: SPR (Biacore 4000), mAb captured on anti-human Fc, 37°C
Property name: 100 nM hIL-36R-MMH Bound (RU)
Give the quantity in RU, number only.

Example cases with answers are listed next.
# Binder, 100 nM hIL-36R-MMH Bound (RU)
rows = [
    ("H4H14709P (antibody, human IgG4 S228P, kappa, V domains shown) VH: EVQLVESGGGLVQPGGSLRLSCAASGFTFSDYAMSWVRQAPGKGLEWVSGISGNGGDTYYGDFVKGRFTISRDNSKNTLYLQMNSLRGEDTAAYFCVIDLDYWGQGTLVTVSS VL: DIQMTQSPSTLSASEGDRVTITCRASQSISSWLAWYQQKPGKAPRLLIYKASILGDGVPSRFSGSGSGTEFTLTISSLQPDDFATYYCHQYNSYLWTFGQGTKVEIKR", 106),
    ("H4H14700P2 (antibody, human IgG4 S228P, kappa, V domains shown) VH: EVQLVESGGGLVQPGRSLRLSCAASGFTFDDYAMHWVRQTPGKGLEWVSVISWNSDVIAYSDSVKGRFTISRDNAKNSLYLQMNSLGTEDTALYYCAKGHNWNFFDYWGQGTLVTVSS VL: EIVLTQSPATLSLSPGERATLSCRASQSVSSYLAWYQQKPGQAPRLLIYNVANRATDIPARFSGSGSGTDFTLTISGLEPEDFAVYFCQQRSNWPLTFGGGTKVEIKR", 89),
    ("H4H14706P2 (antibody, human IgG4 S228P, kappa, V domains shown) VH: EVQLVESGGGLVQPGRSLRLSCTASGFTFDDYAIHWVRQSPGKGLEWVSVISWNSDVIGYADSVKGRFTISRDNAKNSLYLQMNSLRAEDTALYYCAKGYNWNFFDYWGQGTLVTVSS VL: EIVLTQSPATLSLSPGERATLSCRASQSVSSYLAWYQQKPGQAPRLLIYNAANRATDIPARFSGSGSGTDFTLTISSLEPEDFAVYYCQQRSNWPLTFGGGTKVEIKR", 113),
    ("H4H14758P (antibody, human IgG4 S228P, kappa, V domains shown) VH: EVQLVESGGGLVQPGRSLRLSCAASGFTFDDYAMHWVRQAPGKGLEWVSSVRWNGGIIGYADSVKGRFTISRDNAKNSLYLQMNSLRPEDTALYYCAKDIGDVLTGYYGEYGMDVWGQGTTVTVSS VL: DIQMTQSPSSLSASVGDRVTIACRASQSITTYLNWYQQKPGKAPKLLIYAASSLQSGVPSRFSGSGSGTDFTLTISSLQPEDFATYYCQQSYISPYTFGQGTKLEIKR", 111),
]

Note: attention shifts to another entry.
H4H14699P2 (antibody, human IgG4 S228P, kappa, V domains shown, Fully human anti-IL-36R antibody) VH: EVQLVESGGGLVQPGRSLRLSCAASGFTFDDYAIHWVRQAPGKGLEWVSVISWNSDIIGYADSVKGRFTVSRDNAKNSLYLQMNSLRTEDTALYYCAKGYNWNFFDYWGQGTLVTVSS VL: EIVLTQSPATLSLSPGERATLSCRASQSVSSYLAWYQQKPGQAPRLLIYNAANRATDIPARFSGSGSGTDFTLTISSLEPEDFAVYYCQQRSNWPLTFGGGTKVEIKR has a reported 100 nM hIL-36R-MMH Bound (RU) of 89
